Target: MMP-1 (Homo sapiens, UniProt P03956)
Sequence (P03956 100-469): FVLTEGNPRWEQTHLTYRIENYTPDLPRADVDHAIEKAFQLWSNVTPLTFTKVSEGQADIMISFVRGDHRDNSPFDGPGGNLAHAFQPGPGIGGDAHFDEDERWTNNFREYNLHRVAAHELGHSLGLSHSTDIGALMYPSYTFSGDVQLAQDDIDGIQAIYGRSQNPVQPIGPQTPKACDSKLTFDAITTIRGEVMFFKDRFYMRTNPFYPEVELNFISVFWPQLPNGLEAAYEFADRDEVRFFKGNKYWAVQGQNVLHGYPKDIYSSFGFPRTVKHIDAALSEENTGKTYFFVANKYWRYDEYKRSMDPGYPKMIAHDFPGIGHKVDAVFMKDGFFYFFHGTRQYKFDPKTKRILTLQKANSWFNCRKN
Test: MMP-1 inhibition (thiopeptide or fluorescent peptide substrate)
Format: biochemical
Settings: read-out: MMP1 IC50
Protocol: These standard pharmacological test procedures are based on the cleavage of a thiopeptide substrates such as Ac-Pro-Leu-Gly(2-mercapto-4-methyl-pentanoyl)-Leu-Gly-OEt by the matrix metalloproteinases MMP-1, MMP-13 (collagenases) or MMP-9 (gelatinase), which results in the release of a substrate product that reacts colorimetrically with DTNB (5,5′-dithiobis(2-nitro-benzoic acid)). The enzyme activity is measured by the rate of the color increase. […]
Structures can show the parent of a compound that is named as a salt.
OBSERVED PROPERTY: IC50 (µM)

[a] CC#CCOc1ccc(S(=O)(=O)CC2(C(=O)NO)CCN(CC#CC)CC2)cc1 [Example 37, hydrochloride]
[b] CC#CCOc1ccc([S+]([O-])C2(C(=O)NO)CCNCC2)cc1 (stereo not shown) [Example 81, hydrochloride]
[c] CC#CCOc1ccc(S(=O)(=O)C2(C(=O)NO)CCNCC2)cc1 [Example 76, hydrochloride]
[d] CC#CCOc1ccc(S(=O)(=O)C2(C(=O)NO)CCN(C(=O)c3ccc(OC)cc3)CC2)cc1 [Example 66]
Data request: # descending IC50 order for the listed compounds Use the labels to give the requested order.
Data returned: a, c, d, b

###

Test system: THP-1 cells
Test: Human monocytic THP-1 cell differentiation assay for soluble proteins (THP-1 soluble protein assay)
Type: cell-based
Details: LPS-stimulated THP-1 cells, soluble protein not given
OBSERVED PROPERTY: inhibition at 3 µM (%)
Write the value in % as a bare number.

MOLECULE	RECORDED NUMBER
CC#CCOc1ccc(S(=O)(=O)C2(C(=O)NO)CCN(C(=O)C(C)(CO)CO)CC2)cc1	39

Data request: Under THP-1 cells: report inhibition at 3 µM of CC#CCOc1ccc(S(=O)(=O)C2(C(=O)NO)CCN(C(=O)c3ccc(OC)cc3)CC2)cc1 .
Data returned: 73

Data request: Look up and report inhibition at 3 µM, with THP-1 cells as system, for CC#CCOc1ccc(S(=O)(=O)C2(C(=O)NO)CCN(Cc3ccc(OC)cc3)CC2)cc1
Data returned: 68

Data request: Recall the reported inhibition at 3 µM of CC#CCOc1ccc(S(=O)(=O)C2(C(=O)NO)CCN(C(C)=O)CC2)cc1 on THP-1 cells and write it down.
Data returned: 30

Data request: Fill: inhibition at 3 µM (THP-1 cells) for this molecule CC#CCOc1ccc(S(=O)(=O)CC2(C(=O)NO)CCN(Cc3ccccc3)CC2)cc1
Data returned: 60

Data request: // fetch inhibition at 3 µM; item: CC#CCOc1ccc([S+]([O-])CC2(C(=O)NO)CCNCC2)cc1 (centres unmarked) ; system: THP-1 cells
Data returned: 8

Data request: Look up and report inhibition at 3 µM, with THP-1 cells as system, for CC#CCOc1ccc(S(=O)(=O)C2(C(=O)NO)CCN(S(=O)(=O)C(F)(F)F)CC2)cc1
Data returned: 14

Data request: Specify the recorded inhibition at 3 µM for CC#CCOc1ccc(S(=O)(=O)C2(C(=O)NO)CCN(Cc3ccc(OCCN4CCCCC4)cc3)CC2)cc1 , system: THP-1 cells.
Data returned: 63

###

Molecular target: UniProt:P45452
Structures can show the parent of a compound that is named as a salt.
OBSERVED PROPERTY: IC50 (µM)

MOLECULE	IC50 (µM)
CC#CCOc1ccc(S(=O)(=O)CC2(C(=O)NO)CCN(Cc3ccccc3)CC2)cc1	0.254
CC#CCOc1ccc(S(=O)(=O)C2(C(=O)NO)CCN(C(C)C)CC2)cc1	1.08

[P] CC#CCOc1ccc(S(=O)(=O)C2(C(=O)NO)CCN(C(=O)C(C)(CO)CO)CC2)cc1
[Q] CC#CCOc1ccc(S(=O)(=O)CC2(C(=O)NO)CCN(C(=O)OC)CC2)cc1
[R] CC#CCOc1ccc(S(=O)(=O)C2(C(=O)NO)CCN(Cc3ccc(C(N)=O)cc3)CC2)cc1 [Example 79, hydrochloride]
Data request: Please give the order of these molecules when sorted by IC50, largest value leading. Would you mind listing the labels in the order asked for?
Data returned: Q, P, R
